Assay read-out pIC50 on human ACC2 (Homo sapiens (Human), UniProt O00763); records merged from the literature.
To interpret pIC50, take it as minus log10 of a concentration measured in moles per litre.

Entry CC(F)C(=O)N[C@@H](C)c1ccc(C2CN(c3ccc4c(c3)OCCO4)C2)cc1 (stereo partly shown) : pIC50 on human ACC2 (Homo sapiens (Human), UniProt O00763) = 5.60

Lab note: compound CC(=O)NC(C)Cc1ccc(C#Cc2cccc(C(=O)NCC3CCCO3)c2)cc1 (stereo not shown) tested on human ACC2 (Homo sapiens (Human), UniProt O00763); recorded pIC50 was 5.35

The reported human ACC2 (Homo sapiens (Human), UniProt O00763) pIC50 of CCOc1ccc(C#Cc2ccc(C(C)C(=O)Nc3ccn[nH]3)cc2)cc1 (stereo not shown) is 5.44

Noted pIC50 for "CC(=O)Nc1nc(C)c(C(=O)N[C@@H](C)c2ccc(O[C@@H]3CCN(c4ccnc(OCC5CC5)c4)C3)cc2)s1" , tested on human ACC2 (Homo sapiens (Human), UniProt O00763): 7.23

Item: CC(=O)NC(C)Cc1ccc(C#Cc2cnc(OCc3cccnc3)nc2)cc1 (stereo not shown) | System: human ACC2 (Homo sapiens (Human), UniProt O00763) | pIC50: 5.31

Short answer on human ACC2 (Homo sapiens (Human), UniProt O00763) for CC(=O)NC(C)c1ccc(C#Cc2cnn(Cc3ccccc3)c2)cc1 (stereo not shown) , pIC50: 6.03

Tested on human ACC2 (Homo sapiens (Human), UniProt O00763), the item CC(=O)N[C@@H](C)c1ccc(OC2CCN(c3ncc(OCC4CC4(F)F)cc3Cl)C2)cc1 (stereo partly shown) showed pIC50 equal to 7.54

Tested on human ACC2 (Homo sapiens (Human), UniProt O00763), the item CC(=O)NC(C)Cc1ccc(C#Cc2cnc(N3CC4CCCC4C3)nc2)cc1 (stereo not shown) showed pIC50 equal to 6.89

human ACC2 (Homo sapiens (Human), UniProt O00763) data for CC(=O)NC(C)Cc1ccc(C#Cc2cnc(OC3CCCC3)nc2)cc1 (stereo not shown) ; its pIC50: 6.70

So the reported pIC50 for CCC(CC)Oc1ccc(C#Cc2ccc(CC(C)NC(=O)C3CC3)cc2)cc1 (stereo not shown) , on human ACC2 (Homo sapiens (Human), UniProt O00763), turned out to be 5.80

Entry CC(=O)N[C@@H](C)c1ccc(OC2CCN(c3ncc(OC4CCCC4)cc3F)C2)cc1 (stereo partly shown) , human ACC2 (Homo sapiens (Human), UniProt O00763) data, pIC50 value: 7.30

Entry CCNC(=O)C(C)c1ccc(O[C@@H]2CCN(c3ccc(OCC)cc3F)C2)cc1 (stereo partly shown) , tested on human ACC2 (Homo sapiens (Human), UniProt O00763), has a reported pIC50 of 6.24

Bench note, human ACC2 (Homo sapiens (Human), UniProt O00763): entry CCCNc1nccc(N2CCC(Oc3ccc([C@H](C)NC(=O)N4CCOCC4)cc3)C2)c1F (stereo partly shown) , its pIC50 = 6.85

Fill in: human ACC2 (Homo sapiens (Human), UniProt O00763) pIC50 for CCNC(=O)C(C)c1ccc(O[C@@H]2CCN(c3ccc(F)c(C(F)(F)F)n3)C2)cc1 (stereo partly shown) = 6.45
